test system: NDR2; details: concentration: 1 μM, replicates: in singlicate; n = 1;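 note: KINOMEscan kinase panel screen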
Given measured %Inh, output criterion met if it is greater than or equal to 9% and criterion not met if not.

Before answering, review these 3 worked examples.
O=C1NC(=O)C(c2ccccc2Cl)=C1Nc1cccc(Cl)c1    criterion not met
O=C(Nc1c(F)cccc1F)c1cc(C(=O)c2ccccc2F)c[nH]1    criterion not met
Nc1cccc(-c2ccc3c(N)n[nH]c3c2)c1    criterion met

Attention now shifts to the item below.
Does the reported %Inh for CN(C)CCNS(=O)(=O)c1ccc(-c2ccnc3[nH]ccc23)cc1 fall at or above the 9% mark?
criterion met

---

test system: TRKC; construct: gene NTRK3; details: concentration: 1 μM, replicates: in singlicate; n = 1
Labelling field: enter 1 (yes) if recorded %Inh is less than 30%. Enter 0 (no) if it equals or exceeds that cut-off.

Before answering, review these 7 worked examples.
CC(C)c1nc(-c2cccc(NS(=O)(=O)c3c(F)cccc3F)c2)c(-c2ccnc(Nc3ccc(N4CCOCC4)nc3)n2)s1.Cl    1 (yes)
CC(C)c1nc(-c2ccc(F)c(NS(=O)(=O)c3c(F)cccc3F)c2)c(-c2ccnc(Nc3ccc(N4CCOCC4)nc3)n2)s1    1 (yes)
COc1cccc(NC(=O)NCCNc2ccnc(Nc3ccc(F)cc3)n2)c1    0 (no)
Cl.N#CCc1ccc(Nc2nccc(Nc3ccc(Oc4ccccc4)cc3)n2)cc1    0 (no)
CCNC(=O)/C=C/c1n[nH]c2cc(Sc3ccccc3C(=O)NC)ccc12    1 (yes)
CN(C)CCNS(=O)(=O)c1ccc(-c2ccnc3[nH]ccc23)cc1    0 (no)
CCNc1nccc(-c2c(-c3ccc(F)cc3)ncn2C2CCN(C)CC2)n1    1 (yes)

Confirm or reject: %Inh of O=C(Nc1n[nH]c2nc(-c3ccccc3)ccc12)C1CC1 lies strictly below 30%
1 (yes)

Taken from paper PMC5540273.
